- Tested on: EPO
- method_notes: Human EPO immunoassay (ELISA of Hep3B culture media)
- Format: cell-based
- test_context: Homo sapiens; Hep3B cells, compound at 100 μM, 24-hour incubation; read-out: Fold Induction over control (EPO Induction)

input_smiles	fold induction at 100 µM
CCN(CC)c1ccc2sc3c(O)c(C(=O)NCC(=O)O)nc(Cl)c3c2c1	21 to 50
O=C(O)CNC(=O)c1nc(Cl)c2c(sc3cccc(F)c32)c1O	> 71
O=C(O)CNC(=O)c1nc(Cl)c2c(sc3ccc(NS(=O)(=O)c4ccccc4)cc32)c1O	< 20
O=C(O)CNC(=O)c1ncc2c(oc3ccccc32)c1O	< 20
Cc1nc(C(=O)NCC(=O)O)c(O)c2sc3cc(F)ccc3c12	21 to 50
O=C(O)CNC(=O)c1nc(Cl)c2c(sc3ccc(F)cc32)c1O	21 to 50
CC(C)Oc1ccc2c(c1)sc1c(O)c(C(=O)NCC(=O)O)nc(Cl)c12	21 to 50
CCNc1ccc2sc3c(O)c(C(=O)NCC(=O)O)nc(Cl)c3c2c1	51 to 70
O=C(O)CNC(=O)c1ncc2c(cnn2-c2ccccn2)c1O	< 20
COc1ccc2c(c1)sc1c(O)c(C(=O)NCC(=O)O)nc(Cl)c12	21 to 50
O=C(O)CNC(=O)c1nc(Cl)c2c(sc3cc(O)ccc32)c1O	< 20
O=C(O)CNC(=O)c1nc(Cl)c2c(sc3ccc(C(F)(F)F)cc32)c1O	21 to 50
O=C(O)CNC(=O)c1nc(Cl)c2c(sc3c(F)cccc32)c1O	< 20

* * *

- Tested on: EPO
- method_notes: Human EPO immunoassay (ELISA of Hep3B culture media)
- Assay type: cell-based
- test_context: Homo sapiens; Hep3B cells, compound at 100 μM, 24-hour incubation; read-out: Fold Induction over control (EPO Induction)

input_smiles	fold induction at 100 µM
O=C(O)CNC(=O)c1nc(Cl)c2c(ccn2S(=O)(=O)c2ccccc2)c1O	< 20
O=C(O)CNC(=O)c1nc(Cl)c2c(sc3ccccc32)c1O	21 to 50
Cc1nc(C(=O)NCC(=O)O)c(O)c2sc3ccccc3c12	> 71
O=C(O)CNC(=O)c1nc(Cl)c2c(sc3ccc(O)cc32)c1O	< 20
O=C(O)CNC(=O)c1nc(Cl)c2c(sc3cc(F)ccc32)c1O	51 to 70
O=C(O)CNC(=O)c1ncc2c(sc3ccccc32)c1O	< 20

* * *

Let's look at some compounds and their measured fold induction at 100 µM.
- System: VEGF gene
- method_notes: Cell-based luciferase reporter assay, pVEGF-Luc in HeLa cells
- test_context: Homo sapiens, compound 100 μM, 24 hrs, read-out: VEGF 1 fold induction over control

input_smiles	experimental_target	fold induction at 100 µM
O=C(O)CNC(=O)c1nc(Cl)c2c(cnn2-c2ccccc2)c1O	VEGF gene	2.1 to 4
COc1ccc(Cn2nnc(CNC(=O)c3nc(Br)c4c(sc5ccccc54)c3O)n2)cc1	VEGF gene	2.1 to 4
O=C(O)CNC(=O)c1nc(Cl)c2c(sc3ccc(F)cc32)c1O	VEGF gene	2.1 to 4
O=C(NCc1ccccn1)c1nc(Br)c2c(sc3ccccc32)c1O	VEGF gene	2.1 to 4
O=C(O)CNC(=O)c1nc(Cl)c2c(sc3cc(F)ccc32)c1O	VEGF gene	> 4.1
O=C(O)CNC(=O)c1nc(Cl)c2c(sc3ccccc32)c1O	VEGF gene	> 4.1
O=C(O)CNC(=O)c1nc(Br)c2c(sc3ccccc32)c1O	VEGF gene	4
N#Cc1nc(C(=O)NCC(=O)O)c(O)c2sc3ccccc3c12	VEGF gene	2.1 to 4
O=C(NCc1ccccc1)c1nc(Br)c2c(sc3ccccc32)c1O	VEGF gene	< 2
O=C(O)CNC(=O)c1ncc2c(cnn2-c2ccccc2)c1O	VEGF gene	2.1 to 4
C[C@H](NC(=O)c1nc(Cl)c2c(sc3ccccc32)c1O)C(=O)O	VEGF gene	> 4.1
COc1ccc(Cn2nnnc2CNC(=O)c2nc(Br)c3c(sc4ccccc43)c2O)cc1	VEGF gene	< 2
O=C(O)CNC(=O)c1nc(Cl)c2c(sc3c(F)cccc32)c1O	VEGF gene	2.1 to 4
CN(C)c1ccc2sc3c(O)c(C(=O)NCC(=O)O)nc(Cl)c3c2c1	VEGF gene	> 4.1
O=C(O)CNC(=O)c1nc(Cl)c2c(sc3ccc([N+](=O)[O-])cc32)c1O	VEGF gene	> 4.1
C[C@H](NC(=O)c1nc(Br)c2c(sc3ccccc32)c1O)C(=O)O	VEGF gene	> 4.1
Nc1ccc2sc3c(O)c(C(=O)NCC(=O)O)nc(Cl)c3c2c1	VEGF gene	2.1 to 4

Data credit: patent US20110028507A1
